Give measured pIC50 for each item. Keep answers brief.
# TARGET SYSTEM: G protein-activated inward rectifier potassium channel 1 (Homo sapiens, UniProt P48549)
# Sequence (P48549 whole entry): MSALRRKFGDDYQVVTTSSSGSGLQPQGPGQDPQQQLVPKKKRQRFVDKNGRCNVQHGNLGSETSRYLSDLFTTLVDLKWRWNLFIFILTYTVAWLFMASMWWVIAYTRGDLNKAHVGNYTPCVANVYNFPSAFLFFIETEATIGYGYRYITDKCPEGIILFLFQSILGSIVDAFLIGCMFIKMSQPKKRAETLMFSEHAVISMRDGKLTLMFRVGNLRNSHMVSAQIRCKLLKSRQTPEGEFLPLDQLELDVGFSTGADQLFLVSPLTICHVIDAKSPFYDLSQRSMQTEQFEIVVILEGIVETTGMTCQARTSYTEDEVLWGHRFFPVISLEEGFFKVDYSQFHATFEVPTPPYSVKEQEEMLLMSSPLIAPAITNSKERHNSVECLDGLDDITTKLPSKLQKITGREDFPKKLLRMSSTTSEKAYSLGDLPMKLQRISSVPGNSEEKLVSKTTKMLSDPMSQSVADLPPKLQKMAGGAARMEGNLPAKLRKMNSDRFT
# EXPERIMENT NOTES: Inhibition of GIRK1/2 (unknown origin)
Give bare numbers, as −log10 of the molar value.

Solved entries (count: 2):
# SMILES DATA, TARGET SYSTEM, pIC50
rows = [
    ("O=C(Nc1ccc(F)c(F)c1)Nc1cc(-c2ccccc2)nn1-c1ccccc1", "G protein-activated inward rectifier potassium channel 1 (Homo sapiens, UniProt P48549)", 4.52),
    ("O=C(Nc1ccc(F)c(F)c1)Nc1cc(C(F)(F)F)nn1-c1ccccc1", "G protein-activated inward rectifier potassium channel 1 (Homo sapiens, UniProt P48549)", 4.52),
]

The record that follows has no pIC50 shown yet.
For record O=C(Nc1ccc(F)c(F)c1)Nc1cc(C2CCC2)nn1-c1ccccc1 the listed pIC50 is 4.52
